system: NCI-H322M lung; assay: NCI-60 one-dose screen, 48 h (100 = growth as untreated, 0 = no growth, -100 = all killed); conditions: 10 µM unless noted
About 83,000 compounds went through this panel and 20% of them were active in at least one assay; those are over-represented in the sample as a whole. Active and inactive are the calls of the source. Rule for the calls: active = growth percent below 10; inactive = the rest.
test-readout: growth

Answered cases to consult:
line-notation | test-readout | value-measured
CNC(=O)c1cc(N2CCc3cc(NC(=O)Nc4ccc(N5CCOCC5)c(C(F)(F)F)c4)ccc32)ccn1 | growth | 56.2% (inactive)
CS(=O)(=O)c1nccc(-c2c(-c3cccc(OCc4ccc(Cl)c(C(F)(F)F)c4)c3)nc3sccn23)n1 | growth | 86.1% (inactive)

Now for the compound whose growth we want.
Enquiry: Which growth value belongs to Cn1cc(-c2nc(N)nnc2-c2c[nH]c3ccc(Br)cc23)c2cc(F)ccc21 ?
Return: 86.1% (inactive)
